The reported measurements were obtained from ChEMBL document CHEMBL1152244.

For each record, write down the corresponding Km.
System: dengue virus type 2
Assay: Activity of dengue virus 2 recombinant NS3 protease expressed in Escherichia coli C41(DE3) by fluorogenic assay
Non-standard residues stand in square brackets, D forms with d. Residues, ends and D or L forms follow the SMILES beside them. Tyr(3-NO2) = N[C@@H](Cc1ccc(O)c([N+](=O)[O-])c1)C(=O)O; 2Abz = Nc1ccccc1C(=O)O
Kindly answer with a numeric value in µM, unit omitted.

Challenge: Tell me Km reported for C[C@H](NC(=O)[C@H](CO)NC(=O)c1ccccc1N)C(=O)NCC(=O)N[C@@H](Cc1ccc(O)c([N+](=O)[O-])c1)C(N)=O (H-[2Abz]SAG[Tyr(3-NO2)]-NH2)
Response given: 3.61

Challenge: Identify measured Km corresponding to CC(C)C[C@H](NC(=O)[C@@H](NC(=O)CNC(=O)[C@H](C)NC(=O)c1ccccc1N)C(C)C)C(=O)N[C@@H](Cc1ccc(O)c([N+](=O)[O-])c1)C(N)=O (H-[2Abz]AGVL[Tyr(3-NO2)]-NH2)
Response given: 2.19

Challenge: Return reported Km. Input compound: NC(=O)[C@H](Cc1ccc(O)c([N+](=O)[O-])c1)NC(=O)[C@H](CS)NC(=O)CNC(=O)[C@H](Cc1c[nH]c2ccccc12)NC(=O)[C@H](CO)NC(=O)c1ccccc1N (H-[2Abz]SWGC[Tyr(3-NO2)]-NH2)
Response given: 2.87

* * *

Could you please report measured log10 of kcat for the items listed next?
Tested on: dengue virus type 3
Experiment: Activity of dengue virus 3 recombinant NS3 protease expressed in Escherichia coli C41(DE3) by fluorogenic assay
Non-standard residues stand in square brackets, D forms with d. Residues, ends and D or L forms follow the SMILES beside them. Tyr(3-NO2) = N[C@@H](Cc1ccc(O)c([N+](=O)[O-])c1)C(=O)O; 2Abz = Nc1ccccc1C(=O)O
Recorded kcat (log10, s⁻¹)

Challenge: Return reported log10 of kcat. Input compound: C[C@H](NC(=O)c1ccccc1N)C(=O)N[C@@H](CC(N)=O)C(=O)NCC(=O)N[C@@H](Cc1cnc[nH]1)C(=O)N[C@@H](Cc1ccc(O)c([N+](=O)[O-])c1)C(N)=O (H-[2Abz]ANGH[Tyr(3-NO2)]-NH2)
Response given: -1.99

Challenge: Report measured log10 of kcat; entry is NC(=O)[C@H](Cc1ccc(O)c([N+](=O)[O-])c1)NC(=O)[C@@H]1CCCN1C(=O)[C@@H]1CCCN1C(=O)CNC(=O)c1ccccc1N (H-[2Abz]GPP[Tyr(3-NO2)]-NH2)
Response given: -2.13

Challenge: Identify the reported log10 of kcat for the following entry. NC(=O)[C@H](Cc1ccc(O)c([N+](=O)[O-])c1)NC(=O)[C@H](CC(=O)O)NC(=O)[C@H](CS)NC(=O)[C@H](Cc1cnc[nH]1)NC(=O)[C@H](CO)NC(=O)c1ccccc1N (H-[2Abz]SHCD[Tyr(3-NO2)]-NH2)
Response given: -1.55

Challenge: // fetch log10 of kcat given entry NC(=O)[C@H](Cc1ccc(O)c([N+](=O)[O-])c1)NC(=O)[C@H](Cc1cnc[nH]1)NC(=O)[C@@H]1CCCN1C(=O)[C@H](CO)NC(=O)[C@H](Cc1cnc[nH]1)NC(=O)c1ccccc1N (H-[2Abz]HSPH[Tyr(3-NO2)]-NH2)
Response given: -3.08

Challenge: Read the entry NC(=O)C[C@H](NC(=O)CNC(=O)[C@H](Cc1cnc[nH]1)NC(=O)[C@H](Cc1cnc[nH]1)NC(=O)c1ccccc1N)C(=O)N[C@@H](Cc1ccc(O)c([N+](=O)[O-])c1)C(N)=O (H-[2Abz]HHGN[Tyr(3-NO2)]-NH2) and write its reported log10 of kcat.
Response given: -2.74
